The origin of these recorded values is patent US9233951B2.

test: physchem; format: physicochemical; conditions: pH 3.4, HPLC, reverse-phase C 18, acidic range pH 3.4, 55° C.; table of compounds; read-out: logP (HCO2H)
experimental.endpoint: chromatographic logP

Request: Fill in: chromatographic logP of O=C(NCC(F)F)c1csc(-c2cccnc2)n1 is ___
Result: 1.22

---

Let's look at some compounds and their measured chromatographic logP.
assay: physchem; assay type: physicochemical; settings: reverse-phase HPLC column (C 18), pH 3.4, HPLC, reverse-phase C 18, acidic range pH 3.4, 55° C.; table of compounds; read-out: logP (HCO2H)

Reference set, count: 4
> print(dat)
                                   compound  experimental.endpoint  experimental.result
1        Cc1nc(-c2cccnc2)oc1C(=O)NCC(F)(F)F   chromatographic logP                 1.46
2  O=C(NCc1ncccn1)C1CN=C(c2cncnc2)S1 (racemic)   chromatographic logP                  0.9
3           CN(CC#N)C(=O)c1ccc(-c2cccnc2)o1   chromatographic logP                 0.72
4         O=C(NCC(F)(F)F)c1cc(-c2cccnc2)on1   chromatographic logP                 1.51

Request: What value of chromatographic logP has been reported for the following compound? CN(C)C(=O)c1cnc(-c2cccnc2)o1
Result: 1.43
